Parameter Emax: see the listing below.
Target: GlunN1/GluN2A glutamate receptors (Homo sapiens (Human), UniProt Q05586+Q12879)
Sequence (Q12879 23-1464, other chains not shown): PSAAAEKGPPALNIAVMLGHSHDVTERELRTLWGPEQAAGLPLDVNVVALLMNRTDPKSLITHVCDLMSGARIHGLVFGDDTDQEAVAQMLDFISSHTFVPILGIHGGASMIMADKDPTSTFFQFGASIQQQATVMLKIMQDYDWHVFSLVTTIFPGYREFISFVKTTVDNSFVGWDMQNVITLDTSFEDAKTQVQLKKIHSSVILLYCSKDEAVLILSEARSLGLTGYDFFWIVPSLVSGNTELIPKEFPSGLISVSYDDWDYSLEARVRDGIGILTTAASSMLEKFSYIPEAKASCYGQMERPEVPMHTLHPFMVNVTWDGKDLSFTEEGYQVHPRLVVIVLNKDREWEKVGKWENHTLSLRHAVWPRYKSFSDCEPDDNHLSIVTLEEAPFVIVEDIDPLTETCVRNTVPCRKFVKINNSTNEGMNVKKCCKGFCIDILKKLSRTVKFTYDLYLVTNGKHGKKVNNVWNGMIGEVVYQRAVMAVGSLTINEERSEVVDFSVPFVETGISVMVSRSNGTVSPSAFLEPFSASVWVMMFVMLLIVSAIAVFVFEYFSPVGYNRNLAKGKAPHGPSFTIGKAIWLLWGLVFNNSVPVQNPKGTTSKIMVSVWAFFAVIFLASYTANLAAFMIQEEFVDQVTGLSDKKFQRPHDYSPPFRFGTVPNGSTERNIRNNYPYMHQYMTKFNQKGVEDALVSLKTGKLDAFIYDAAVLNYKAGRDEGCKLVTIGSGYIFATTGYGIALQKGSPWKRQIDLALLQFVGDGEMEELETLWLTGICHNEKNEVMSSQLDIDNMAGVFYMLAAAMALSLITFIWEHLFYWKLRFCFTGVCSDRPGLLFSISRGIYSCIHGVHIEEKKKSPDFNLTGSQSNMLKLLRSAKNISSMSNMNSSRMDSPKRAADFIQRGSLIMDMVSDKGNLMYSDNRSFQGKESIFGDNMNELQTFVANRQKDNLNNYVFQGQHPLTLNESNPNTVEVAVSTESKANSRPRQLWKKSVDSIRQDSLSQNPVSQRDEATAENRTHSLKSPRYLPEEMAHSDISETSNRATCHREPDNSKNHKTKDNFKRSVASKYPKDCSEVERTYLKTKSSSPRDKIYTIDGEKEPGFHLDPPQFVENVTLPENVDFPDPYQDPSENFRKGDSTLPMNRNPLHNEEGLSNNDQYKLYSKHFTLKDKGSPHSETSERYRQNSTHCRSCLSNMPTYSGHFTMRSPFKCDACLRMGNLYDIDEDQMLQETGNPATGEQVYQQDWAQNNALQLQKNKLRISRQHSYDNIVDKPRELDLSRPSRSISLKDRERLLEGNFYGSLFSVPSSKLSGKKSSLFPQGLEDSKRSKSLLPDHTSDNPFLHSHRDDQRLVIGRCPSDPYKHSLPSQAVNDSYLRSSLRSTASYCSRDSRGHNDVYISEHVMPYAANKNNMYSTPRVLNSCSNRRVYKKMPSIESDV
Assay: Whole-cell patch clamp of mammalian cells (Ionworks Barracuda), positive allosteric modulation, GluN1/GluN2A
Format: cell-based
Details: HEK293 cells; % potentiation of current elicited with EC20 L-glutamate and 30 μM glycine; read-out: Avg Emax 2A (%)
Procedure: The measurements were performed using Ion Works Barracuda platform following this procedure: Electrophysiological Procedures: • a) Intracellular solution (mM): 50 mM CsCl, 90 mM CsF, 2 mM MgCl2, 5 mM EGTA, 10 mM HEPES. Adjust to pH 7.2 with CsOH. • b) Extracellular solution, HB-PS (composition in mM): NaCl, 137; KCl, 1.0; CaCl2), 5; HEPES, 10; Glucose, 10; pH adjusted to 7.4 with NaOH (refrigerated until use). • c) Holding potential: −70 mV, potential during agonist/PAM application: −40 mV. […]
measured.endpoint: Emax (%)

* C[C@H](CC[C@@H](O)C(F)(F)F)[C@H]1CC[C@H]2[C@@H]3CC[C@H]4C[C@](O)(C(F)(F)F)CC[C@]4(C)[C@H]3CC[C@]12C | 619
* CC[C@]1(O)CC[C@H]2C(=CC[C@@H]3[C@@H]2CC[C@]2(C)[C@@H]([C@H](C)CCCC4(O)CCOCC4)CC[C@@H]32)C1 | 79.3
* CC[C@]1(O)CC[C@H]2C(=CC[C@@H]3[C@@H]2CC[C@]2(C)[C@@H]([C@H](C)CCCC(C)(C)O)CC[C@@H]32)C1 | 162
* CC[C@]1(O)CC[C@@]2(C)C(=CC[C@H]3[C@@H]4CC[C@H]([C@H](C)CC[C@@H](O)c5ccc(C#N)cc5)[C@@]4(C)CC[C@@H]32)C1 (single isomer, unassigned) | 175
* CC[C@]1(O)CC[C@H]2C(=CC[C@@H]3[C@@H]2CC[C@]2(C)[C@@H]([C@H](C)CCCC4(O)CCC(F)(F)CC4)CC[C@@H]32)C1 | 87.1
* CC[C@]1(O)CC[C@@]2(C)[C@@H](CC[C@@H]3[C@@H]2CC[C@]2(C)[C@@H]([C@H](C)CC[C@@H](O)c4ccccc4)CC[C@@H]32)C1 | 158
* CC[C@]1(O)CC[C@H]2C(=CC[C@@H]3[C@@H]2CC[C@]2(C)[C@@H]([C@H](C)CCC[C@@H](O)C(C)(C)C)CC[C@@H]32)C1 | 65.9
* CO[C@H]1CC[C@](O)(CC[C@@H](C)[C@H]2CC[C@H]3[C@@H]4CC[C@H]5C[C@](O)(C(F)(F)F)CC[C@]5(C)[C@H]4CC[C@]23C)CC1 | 72.2
* CC[C@]1(O)CC[C@@]2(C)C(=CC[C@H]3[C@@H]4CC[C@H]([C@H](C)CC[C@H](O)c5cccnc5)[C@@]4(C)CC[C@@H]32)C1 | 30.9
* CC[C@]1(O)CC[C@@]2(C)C(=CC[C@H]3[C@@H]4CC[C@H]([C@H](C)CC[C@H](O)Cc5ccccc5)[C@@]4(C)CC[C@@H]32)C1 | 293
* CC(C)C(O)CC[C@@H](C)[C@H]1CC[C@H]2[C@@H]3CC[C@H]4C[C@](O)(C(F)(F)F)CC[C@]4(C)[C@H]3CC[C@]12C (some centres unmarked) | 709
* CC[C@]1(O)CC[C@H]2C(=CC[C@@H]3[C@@H]2CC[C@]2(C)[C@@H]([C@H](C)CCC[C@H](O)C(C)C)CC[C@@H]32)C1 | 192
* C[C@H](O)CC[C@@H](C)[C@H]1CC[C@H]2[C@@H]3CC=C4C[C@](O)(C(F)(F)F)CC[C@]4(C)[C@H]3CC[C@]12C | 163
* C[C@H](CCC1(O)CCOCC1)[C@H]1CC[C@H]2[C@@H]3CC[C@H]4C[C@](O)(C(F)(F)F)CC[C@]4(C)[C@H]3CC[C@]12C | 151
* CC(C)[C@H](O)CC[C@@H](C)[C@H]1CC[C@H]2[C@@H]3CC[C@H]4C[C@](O)(C(F)(F)F)CC[C@]4(C)[C@H]3CC[C@]12C | 625
* CC[C@]1(O)CC[C@H]2[C@@H](CC[C@@H]3[C@@H]2CC[C@]2(C)[C@@H]([C@H](C)CCCC(C)(C)O)CC[C@@H]32)C1 | 154
* CC[C@]1(O)CC[C@H]2C(=CC[C@@H]3[C@@H]2CC[C@]2(C)[C@@H]([C@H](C)CCC[C@H](C)O)CC[C@@H]32)C1 | 234
* C[C@H](CCC(O)c1cccnc1)[C@H]1CC[C@H]2[C@@H]3CC=C4C[C@@](C)(O)CC[C@]4(C)[C@H]3CC[C@]12C (some centres unmarked) | 159
* C[C@H](CCC1(O)CCC(C)(C)CC1)[C@H]1CC[C@H]2[C@@H]3CC=C4C[C@](O)(C(F)(F)F)CC[C@]4(C)[C@H]3CC[C@]12C | 36.1
* C[C@H](CCC1(O)CCCCC1)[C@H]1CC[C@H]2[C@@H]3CC[C@H]4C[C@](O)(C(F)(F)F)CC[C@]4(C)[C@H]3CC[C@]12C | 322
